Origin of the recorded values: paper PMC11859184

Reported values of tissue to tissue ratio at 24 h for individual entries
assay: Ex vivo biodistribution of 177Lu-labeled ligands in PC-3 tumor-bearing mice; settings: male, NOD.Cg-Rag1^tm1Mom Il2rg^tm1Wjl/SzJ (NRG), mouse, tumor/kidney, iv, total radioactivity, 24 h pi, n = 5; read-out: Tumor/kidney uptake ratio
measured.metric: tissue to tissue ratio at 24 h

compound="CC(C)C[C@@H](CN1CC(F)(F)C[C@H]1C(N)=O)NC(=O)[C@H](Cc1c[nH]cn1)NC(=O)CN(C)C(=O)[C@@H](NC(=O)[C@H](C)NC(=O)[C@H](Cc1c[nH]c2ccccc12)NC(=O)[C@H](CCC(N)=O)NC(=O)[C@@H](Cc1ccccc1)NC(=O)CN1CCC(NC(=O)CN2CCN(CC(=O)O)CCN(CC(=O)O)CCN(CC(=O)O)CC2)CC1)C(C)C [[^177Lu]Lu-LW02080, metal not drawn]" measured_metric="tissue to tissue ratio at 24 h" endpoint_result=1.34
compound="CC(C)C[C@H](NC(=O)[C@H](Cc1cnc[nH]1)N(C)C(=O)CNC(=O)[C@@H](NC(=O)[C@H](C)NC(=O)[C@H](Cc1c[nH]c2ccccc12)NC(=O)[C@H](CCC(N)=O)NC(=O)[C@@H](Cc1ccccc1)NC(=O)CN1CCC(NC(=O)CN2CCN(CC(=O)O)CCN(CC(=O)O)CCN(CC(=O)O)CC2)CC1)C(C)(C)C)C(=O)N1CC(F)(F)C[C@H]1C(N)=O [[^177Lu]Lu-LW02060, metal not drawn]" measured_metric="tissue to tissue ratio at 24 h" endpoint_result=5.67

###

Reported values of tissue uptake at 1 h for individual entries
assay: Ex vivo biodistribution of 68Ga-labeled tracers in PC-3 tumor-bearing mice; details: mouse, large intestine, intravenous, 100 ug; 1 h pi, blocked (100 µg blocking agent co-injected); read-out: Large intestine uptake
measured.metric: tissue uptake at 1 h (%ID/g)

compound="CC(C)C[C@H](NC(=O)[C@H](Cc1cnc[nH]1)N(C)C(=O)CNC(=O)[C@@H](NC(=O)[C@H](C)NC(=O)[C@H](Cc1c[nH]c2ccccc12)NC(=O)[C@H](CCC(N)=O)NC(=O)[C@@H](Cc1ccccc1)NC(=O)CN1CCC(NC(=O)CN2CCN(CC(=O)O)CCN(CC(=O)O)CCN(CC(=O)O)CC2)CC1)C(C)(C)C)C(=O)N1CC(F)(F)C[C@H]1C(N)=O [[^68Ga]Ga-LW02060, metal not drawn]" endpoint_result=0.54
compound="CC(C)C[C@@H](CN1CC(F)(F)C[C@H]1C(N)=O)NC(=O)[C@H](Cc1c[nH]cn1)NC(=O)CN(C)C(=O)[C@@H](NC(=O)[C@H](C)NC(=O)[C@H](Cc1c[nH]c2ccccc12)NC(=O)[C@H](CCC(N)=O)NC(=O)[C@@H](Cc1ccccc1)NC(=O)CN1CCC(NC(=O)CN2CCN(CC(=O)O)CCN(CC(=O)O)CCN(CC(=O)O)CC2)CC1)C(C)C [[^68Ga]Ga-LW02080, metal not drawn]" endpoint_result=0.33

###

assay: Ex vivo biodistribution of 177Lu-labeled ligands in PC-3 tumor-bearing mice; conditions: mouse, brain, intravenous, 1 h pi, n = 5; read-out: Brain uptake
Reported values of tissue uptake at 1 h for individual entries
measured.metric: tissue uptake at 1 h (%ID/g)

compound="CC(C)C[C@@H](CN1CC(F)(F)C[C@H]1C(N)=O)NC(=O)[C@H](Cc1c[nH]cn1)NC(=O)CN(C)C(=O)[C@@H](NC(=O)[C@H](C)NC(=O)[C@H](Cc1c[nH]c2ccccc12)NC(=O)[C@H](CCC(N)=O)NC(=O)[C@@H](Cc1ccccc1)NC(=O)CN1CCC(NC(=O)CN2CCN(CC(=O)O)CCN(CC(=O)O)CCN(CC(=O)O)CC2)CC1)C(C)C [[^177Lu]Lu-LW02080, metal not drawn]" endpoint_result=0.02
compound="CC(C)C[C@H](NC(=O)[C@H](Cc1cnc[nH]1)N(C)C(=O)CNC(=O)[C@@H](NC(=O)[C@H](C)NC(=O)[C@H](Cc1c[nH]c2ccccc12)NC(=O)[C@H](CCC(N)=O)NC(=O)[C@@H](Cc1ccccc1)NC(=O)CN1CCC(NC(=O)CN2CCN(CC(=O)O)CCN(CC(=O)O)CCN(CC(=O)O)CC2)CC1)C(C)(C)C)C(=O)N1CC(F)(F)C[C@H]1C(N)=O [[^177Lu]Lu-LW02060, metal not drawn]" endpoint_result=0.02

###

assay: Ex vivo biodistribution of 177Lu-labeled ligands in PC-3 tumor-bearing mice; conditions: mouse, pancreas, intravenous, 100 ug, 1 h pi, blocked (100 µg GRPR antagonist co-injected); read-out: Pancreas uptake
measured.metric: tissue uptake at 1 h (%ID/g)

compound="CC(C)C[C@H](NC(=O)[C@H](Cc1cnc[nH]1)N(C)C(=O)CNC(=O)[C@@H](NC(=O)[C@H](C)NC(=O)[C@H](Cc1c[nH]c2ccccc12)NC(=O)[C@H](CCC(N)=O)NC(=O)[C@@H](Cc1ccccc1)NC(=O)CN1CCC(NC(=O)CN2CCN(CC(=O)O)CCN(CC(=O)O)CCN(CC(=O)O)CC2)CC1)C(C)(C)C)C(=O)N1CC(F)(F)C[C@H]1C(N)=O [[^177Lu]Lu-LW02060, metal not drawn]" measured_metric="tissue uptake at 1 h" endpoint_result=0.51
compound="CC(C)C[C@@H](CN1CC(F)(F)C[C@H]1C(N)=O)NC(=O)[C@H](Cc1c[nH]cn1)NC(=O)CN(C)C(=O)[C@@H](NC(=O)[C@H](C)NC(=O)[C@H](Cc1c[nH]c2ccccc12)NC(=O)[C@H](CCC(N)=O)NC(=O)[C@@H](Cc1ccccc1)NC(=O)CN1CCC(NC(=O)CN2CCN(CC(=O)O)CCN(CC(=O)O)CCN(CC(=O)O)CC2)CC1)C(C)C [[^177Lu]Lu-LW02080, metal not drawn]" measured_metric="tissue uptake at 1 h" endpoint_result=0.34

###

test: Ex vivo biodistribution of 177Lu-labeled ligands in PC-3 tumor-bearing mice; conditions: mouse, PC-3 tumor, intravenous, 24 h pi, n = 5; read-out: PC-3 tumor uptake
Reported values of tissue uptake at 24 h for individual entries
measured.metric: tissue uptake at 24 h

compound="CC(C)C[C@@H](CN1CC(F)(F)C[C@H]1C(N)=O)NC(=O)[C@H](Cc1c[nH]cn1)NC(=O)CN(C)C(=O)[C@@H](NC(=O)[C@H](C)NC(=O)[C@H](Cc1c[nH]c2ccccc12)NC(=O)[C@H](CCC(N)=O)NC(=O)[C@@H](Cc1ccccc1)NC(=O)CN1CCC(NC(=O)CN2CCN(CC(=O)O)CCN(CC(=O)O)CCN(CC(=O)O)CC2)CC1)C(C)C [[^177Lu]Lu-LW02080, metal not drawn]" measured_metric="tissue uptake at 24 h" endpoint_result="1.12 %ID/g"
compound="CC(C)C[C@H](NC(=O)[C@H](Cc1cnc[nH]1)N(C)C(=O)CNC(=O)[C@@H](NC(=O)[C@H](C)NC(=O)[C@H](Cc1c[nH]c2ccccc12)NC(=O)[C@H](CCC(N)=O)NC(=O)[C@@H](Cc1ccccc1)NC(=O)CN1CCC(NC(=O)CN2CCN(CC(=O)O)CCN(CC(=O)O)CCN(CC(=O)O)CC2)CC1)C(C)(C)C)C(=O)N1CC(F)(F)C[C@H]1C(N)=O [[^177Lu]Lu-LW02060, metal not drawn]" measured_metric="tissue uptake at 24 h" endpoint_result="5.78 %ID/g"

###

Reported values of tissue to tissue ratio at 1 h for individual entries
experiment: Ex vivo biodistribution of 177Lu-labeled ligands in PC-3 tumor-bearing mice; conditions: male, NOD.Cg-Rag1^tm1Mom Il2rg^tm1Wjl/SzJ (NRG), mouse, tumor/pancreas, iv, total radioactivity, 1 h pi, n = 5; read-out: Tumor/pancreas uptake ratio
measured.metric: tissue to tissue ratio at 1 h

compound="CC(C)C[C@@H](CN1CC(F)(F)C[C@H]1C(N)=O)NC(=O)[C@H](Cc1c[nH]cn1)NC(=O)CN(C)C(=O)[C@@H](NC(=O)[C@H](C)NC(=O)[C@H](Cc1c[nH]c2ccccc12)NC(=O)[C@H](CCC(N)=O)NC(=O)[C@@H](Cc1ccccc1)NC(=O)CN1CCC(NC(=O)CN2CCN(CC(=O)O)CCN(CC(=O)O)CCN(CC(=O)O)CC2)CC1)C(C)C [[^177Lu]Lu-LW02080, metal not drawn]" endpoint_result=14.8
compound="CC(C)C[C@H](NC(=O)[C@H](Cc1cnc[nH]1)N(C)C(=O)CNC(=O)[C@@H](NC(=O)[C@H](C)NC(=O)[C@H](Cc1c[nH]c2ccccc12)NC(=O)[C@H](CCC(N)=O)NC(=O)[C@@H](Cc1ccccc1)NC(=O)CN1CCC(NC(=O)CN2CCN(CC(=O)O)CCN(CC(=O)O)CCN(CC(=O)O)CC2)CC1)C(C)(C)C)C(=O)N1CC(F)(F)C[C@H]1C(N)=O [[^177Lu]Lu-LW02060, metal not drawn]" endpoint_result=3.57
